tested on: mouse plasma stability, percent remaining; test: second set, compound stability in murine plasma, biochemical ADME (AID 624419); conditions: at 1 µM
property: plasma stability (%)
# unit: % | format: bare number

Observe how each entry below is paired with its result.
CCCN(CCC)CCNC(=O)C1CCN(Cc2nc(-c3ccc(Cl)cc3)oc2C)CC1 = 100
O=C(COC(=O)C12CC3CC(CC(C3)C1)C2)NCc1ccco1 = 2.35
CCc1nnc(NC(=O)c2ccc(NS(=O)(=O)c3ccccc3)cc2)s1 = 97.6
NC(=O)C1CCN(c2nc(-c3ccc(Br)cc3)cs2)CC1 = 82.8
COc1cc(NC(=O)c2cc(C3CC3)on2)c(OC)cc1Cl = 42.4

Turning now to a further record.
Record COc1ccc(CSc2nc(C)cc(=O)[nH]2)cc1 , field plasma stability: 100

----------
test system: mouse plasma stability, percent remaining; assay: second set, compound stability in murine plasma, biochemical ADME (AID 624419); conditions: at 1 µM
property: plasma stability (%)
# unit: % | format: bare number

// returns plasma stability for Brc1ccc2c(c1)CN1CCCC1=N2 with mouse plasma stability, percent remaining; value = 100

// returns plasma stability for O=C(O)c1ccc(N2C(=O)/C(=C/c3ccc(-c4ccc([N+](=O)[O-])cc4)o3)C=C2c2ccccc2)cc1 with mouse plasma stability, percent remaining; value = 99.7

// returns plasma stability for COc1ccc(N(C(=O)CCl)C(C(=O)NCCc2ccccc2)c2cccs2)cc1Cl (centres undefined) with mouse plasma stability, percent remaining; value = 15.3

// returns plasma stability for CCc1oc2ccccc2c1C(=O)c1cc(Br)c(O)c(Br)c1 with mouse plasma stability, percent remaining; value = 100

----------
# plasma stability listing for each entry below
tested on: mouse plasma stability, percent remaining; experiment: second set, compound stability in murine plasma, biochemical ADME (AID 624419); conditions: at 1 µM

Observe how each entry below is paired with its result.
Cc1cc2c(s1)c1cnn(Cc3ccccc3F)c(=O)c1n2C = 89.8%
CN(C)c1oc(-c2ccc(OCc3ccc(Cl)cc3)cc2)nc1C#N = 91.4%
CCOc1ccc(-c2nc(-c3ccncc3)no2)cc1OCC = 92.1%

Turning now to a further record.
// returns plasma stability for CS(=O)(=O)c1ccc(C(=O)OCC(=O)NC23CC4CC(CC(C4)C2)C3)cc1[N+](=O)[O-] with mouse plasma stability, percent remaining; value = 91.4%

----------
tested on: mouse plasma stability, percent remaining; test: second set, compound stability in murine plasma, biochemical ADME (AID 624419); details: at 1 µM
# plasma stability listing for each entry below
# unit: % | format: bare number

Observe how each entry below is paired with its result.
O=C(O)c1cccnc1SCCc1ccccc1 = 100
O=C(O)CCC(NS(=O)(=O)c1ccc(-c2ccccc2)cc1)C(=O)O (configuration not stated) = 88.8
Cc1ccc(C)c(OCCn2cc(C(=O)O)c3ccccc32)c1 = 94.8
O=C(c1ccccn1)N(Cc1cccs1)C1(C(=O)NC2CCCCC2)CCCCC1 = 100
N#Cc1ccccc1CSc1nc2ncc(Br)cc2[nH]1 = 100

// returns plasma stability for Cc1ccc(C)c(NS(=O)(=O)c2cc(C(=O)Nc3ccccc3-c3ccccc3)ccc2Cl)c1 with mouse plasma stability, percent remaining; value = 83.4

// returns plasma stability for CC(C)C(=O)NC(c1ccco1)c1ccc2cccnc2c1O (configuration not stated) with mouse plasma stability, percent remaining; value = 95.2

// returns plasma stability for Cc1cc(C)n(-c2nc(NCCCO)c3c4c(sc3n2)CCCC4)n1 with mouse plasma stability, percent remaining; value = 100

// returns plasma stability for CC1CCCN(C(C(=O)Nc2ccc3c(c2)OCCO3)c2ccccc2)C1 (configuration not stated) with mouse plasma stability, percent remaining; value = 100

// returns plasma stability for O=S1(=O)Nc2c(ccc3cccnc23)-c2ccccc21 with mouse plasma stability, percent remaining; value = 100

// returns plasma stability for Cc1ccc(-n2c(N)c(C#N)c(-c3ccccc3)c(C#N)c2=O)cc1 with mouse plasma stability, percent remaining; value = 100

// returns plasma stability for Cc1ccccc1N1CCN(c2ncnc3c2cnn3Cc2ccc(Cl)cc2)CC1 with mouse plasma stability, percent remaining; value = 100

// returns plasma stability for Cc1ccc(NS(=O)(=O)c2ccc3c(c2)CCC(=O)N3)cc1C with mouse plasma stability, percent remaining; value = 100

// returns plasma stability for O=C1NCCCc2c1oc1ccc(O)cc21 with mouse plasma stability, percent remaining; value = 97.2

// returns plasma stability for Cc1ccc(S(=O)(=O)NCc2ccc(C(=O)NCCN(Cc3ccccc3)C(C)C)cc2)cc1 with mouse plasma stability, percent remaining; value = 100

// returns plasma stability for Cc1ccc(NC(=O)CCC(=O)N/N=C/c2ccc([N+](=O)[O-])o2)cc1C with mouse plasma stability, percent remaining; value = 73.3

// returns plasma stability for COc1ccc(C2CC(c3ccccc3)=NN2c2ccc(S(N)(=O)=O)cc2)cc1 (configuration not stated) with mouse plasma stability, percent remaining; value = 100

----------
test system: mouse plasma stability, percent remaining; experiment: second set, compound stability in murine plasma, biochemical ADME (AID 624419); conditions: at 1 µM
property: plasma stability (%)
# unit: % | format: bare number

Observe how each entry below is paired with its result.
Cc1ccc(N2CCN(S(=O)(=O)N3CCCCC3)CC2)c(C)c1 = 100
c1ccc(CC2CCN(c3ncnc4sccc34)CC2)cc1 = 100
CCCN1CNc2c(c(=O)[nH]c(=S)n2CCc2ccc(OC)c(OC)c2)C1 = 99.5

Turning now to a further record.
Record O=C(COc1ccccc1Br)NCCc1nc2ccccc2[nH]1 , field plasma stability: 100
